Collected selectivity ratio values appear next to each entry.
assayOverview: Selectivity index, ratio of IC50 for human MRC5 SV2 cells to IC50 for chloroquine-sensitive Plasmodium falciparum Ghana
Format: toxicity, cell-based
conditionsUsed: read-out: Ratio IC50
readoutKind: selectivity ratio

>>> print(df.to_string())
                                   molecule        readoutkind  result
0           Cn1c2nc3ccccc3c-2cc2cc(Cl)ccc21  selectivity ratio     > 1
1           Cn1c2nc3ccc(Cl)cc3c-2cc2ccccc21  selectivity ratio     > 2
2  Cn1c2nc3ccccc3c-2c(Cl)c2ccccc21 [11-CHLORONEOCRYPTOLEPINE]  selectivity ratio  < 0.08
3  Clc1ccc2nc3[nH]c4ccccc4c3c(N3CCC(N4CCCCC4)CC3)c2c1  selectivity ratio     > 8
